PROTOCOL DETAILS: chemical genetic growth profiling, strain panel (AID 1159580);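 note: tested at 20 µM; growth read once vehicle control cultures reached saturation at 30 °C; lower values mean less growth of the strain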
EXPERIMENTAL CONDITIONS: S. cerevisiae deletion strains, growth OD, locus YHR200W, strain rpn10, active compounds read low
The whole screen tested about 5,500 compounds, of which about 2,000 (36%) were called active. Inconclusive results (about 18%) are left out. This is one part of the list.
Decide using normalized growth alone. Strictly below 1: MET. Equal to or above 1: NOT MET.

Completed entries (count: 3):
Lab log: compare recorded normalized growth with 1; is it strictly lower for COc1ccccc1N1CCNCC1 ?
NOT MET

Also CC(=O)O[C@H]1CC[C@@]2(C)C(=CCC3C2CC[C@@]2(C)C3CC[C@@H]2C(C)CCCC(C)C)C1 (stereo partly specified) ?
NOT MET

Another molecule to look at: CC(=O)O[C@H]1CC[C@@]2(C)C(=CCC3C2CC[C@]2(C)C(=O)CCC32)C1 (stereo partly specified)
MET

# input for lookup
# TODO verify normalized growth < 1 strictly for this molecule: O=C(O)P(=O)(O)O
MET
